- targetOrTestSystem: human GcgR (Homo sapiens)
- Sequence (P47871 26-477): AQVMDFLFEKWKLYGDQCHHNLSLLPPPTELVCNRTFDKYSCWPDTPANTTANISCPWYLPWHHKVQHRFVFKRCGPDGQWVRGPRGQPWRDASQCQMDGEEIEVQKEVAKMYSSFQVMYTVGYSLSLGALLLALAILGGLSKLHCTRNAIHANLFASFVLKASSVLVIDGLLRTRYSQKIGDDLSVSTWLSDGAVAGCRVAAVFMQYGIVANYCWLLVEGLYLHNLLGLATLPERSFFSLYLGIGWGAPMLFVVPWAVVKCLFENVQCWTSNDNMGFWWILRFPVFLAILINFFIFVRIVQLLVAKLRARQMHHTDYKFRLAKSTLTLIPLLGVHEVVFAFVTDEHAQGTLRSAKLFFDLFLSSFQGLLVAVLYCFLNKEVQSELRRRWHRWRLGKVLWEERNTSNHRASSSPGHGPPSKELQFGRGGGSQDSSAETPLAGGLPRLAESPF
- experimentalProtocol: Functional cAMP activity in the presence of 1% HSA
- Type: cell-based
- conditionDescription: read-out: cAMP Rel EC50, hGcgR
pEC50: −log10 of the molar value. Starred links: 1 amine or outer side, 2 acyl side, 3 side chain; linkers in the order of their positions; H or OH if unused. Non-standard residues stand in square brackets, D forms with d. Groups on a side chain read outwards from the residue. No end group written: not given here. *: point of attachment. C18 diacid = O=C(O)CCCCCCCCCCCCCCCCC(=O)*; αMePhe(2-F) = C[C@](N)(Cc1ccccc1F)C(=O)O; γGlu = O=C(O)[C@H](CCC(=O)[*:2])N[*:1]; αMe4Pal = C[C@](N)(Cc1ccncc1)C(=O)O; αMeY = C[C@](N)(Cc1ccc(O)cc1)C(=O)O; 4Pal = N[C@@H](Cc1ccncc1)C(=O)O; αMeL = CC(C)C[C@](C)(N)C(=O)O; αMeS = C[C@](N)(CO)C(=O)O; Iva = CC[C@](C)(N)C(=O)O; Orn = NCCC[C@H](N)C(=O)O; AEEA = NCCOCCOCC(=O)O; Aib = CC(C)(N)C(=O)O

{"columns": ["substance", "pEC50"],
 "data": [
  ["Y[Aib]QGT[αMePhe(2-F)]TSD[4Pal]SI[αMeL]LD[Orn]K([AEEA-AEEA-γGlu-C18 diacid])AQ[αMe4Pal]EFI[dE][αMeY]LLEGGPSSGAPPPSGE-NH2 [Example 613]", 5.85],
  ["Y[Aib]QGTFTSD[4Pal][αMeS]Q[αMeL]LD[Orn]K([dE-γGlu-C18 diacid])AQ[Iva]QFIQ[αMeY]LLE[Aib]GPSSGAPPPSGGGE-NH2 [Example 1139]", 6.57],
  ["H-Y[Aib]QGTFTSD[4Pal]SQ[αMeL]LDKK([AEEA-γGlu-C18 diacid])AQ[αMe4Pal]AFIEYLIE[Aib]GPSSGAPPPSGSGE [Example 889]", 6.16],
  ["H-Y[Aib]QGTFTSD[4Pal]SQ[αMeL]LDKK([AEEA-γGlu-C18 diacid])AQ[αMe4Pal]AFIE[αMeY]LIEGGPSSGAPPPSGS-NH2 [Example 844]", 6.23],
  ["H-Y[Aib]QGTFTSD[4Pal]SQ[αMeL]LD[Orn]K([AEEA-γGlu-γGlu-C18 diacid])AQ[αMe4Pal]AFIEYLIE[dA]GPSSGEPPPSGS-NH2 [Example 1018]", 6.25],
  ["H-Y[Aib]QGT[αMePhe(2-F)]TSD[4Pal][αMeS]I[αMeL]LD[Orn]K([γGlu-γGlu-C18 diacid])AQ[αMe4Pal]EFI[dE][αMeY]LVEGGPSSGAPPPSGE-NH2 [Example 1160]", 6.74],
  ["H-Y[Aib]QGTFTSD[4Pal]SQ[αMeL]LDKK([AEEA-γGlu-C18 diacid])AQ[Aib]AFIEYLLE[dA]GPSS[Aib]APPPSGT-NH2 [Example 824]", 5.95],
  ["H-Y[Aib]QGT[αMePhe(2-F)]TSDYSILLDKK([AEEA-γGlu-C18 diacid])AQ[Aib]AFIEYLEEGGPSSGAPPPEEG-NH2 [Example 399]", 6.25],
  ["H-Y[Aib]QGT[αMePhe(2-F)]TSD[4Pal][αMeS]I[αMeL]LD[Orn]K([γGlu-γGlu-C18 diacid])AQ[αMe4Pal]EFI[dE][αMeY]LVEGGPSSGEPPPSGTGE-NH2 [Example 738]", 6.79],
  ["H-Y[Aib]QGTFTSDFS[Orn][αMeL]LDKK([AEEA-AEEA-γGlu-C18 diacid])AQ[Aib]AFIEWLLEGGHSSGAPPPGGE-NH2 [Example 271]", 5.57],
  ["H-Y[Aib]QGTFTSDFS[Orn][αMeL]LDKK([AEEA-AEEA-γGlu-C18 diacid])AQ[Aib]AFIEYLLE[Aib]GHSSGAPPPSGE-NH2 [Example 186]", 5.89]
]}
